- Assay system: T1, HCV NS5 peptide on HLA-A*02:01 (human)
- T1 peptide: VLTDFKTWL
- Protocol text: cytokine release
Value type: binding result

[
  {
    "Binder": "I4F8 (TCR, V domains shown) Valpha: AQSVTQPDARVTVSEGASLQLRCKYSYFGTPYLFWYVQYPRQGLQLLLKYYPGDPVVQGVNGFEAEFSKSNSSFHLRKASVHWSDWAVYFCAVSNMGYKLTFGTGTSLLVDP Vbeta: DPKIIQKPKYLVAVTGSEKILICEQYLGHNAMYWYRQSAKKPLEFMFSYSYQKLMDNQTASSRFQPQSSKKNHLDLQITALKPDDSATYFCASSQEMGGALEQYFGPGTRLTVL",
    "Measured value": "no recognition"
  },
  {
    "Binder": "I4G7 alpha chain with I4G7 beta chain2 (TCR, V domains shown) Valpha: AQSVTQPDARVTVSEGASLQLRCKYSYFGTPYLFWYVQYPRQGLQLLLKYYPGDPVVQGVNGFEAEFSKSNSSFHLRKASVHWSDWAVYFCAVSRDTNTGKLTFGDGTVLTVKP Vbeta: EAAVTQSPRNKVTVTGGNVTLSCRQTNSHNYMYWYRQDTGHGLRLIHYSYGAGNLRIGDVPDGYKATRTTQEDFFLLLELASPSQTSLYFCASSDYRDSGNTLYFGEGSRLIVV",
    "Measured value": "no recognition"
  },
  {
    "Binder": "I4G7 alpha chain with I4G7 beta chain1 (TCR, V domains shown) Valpha: AQSVTQPDARVTVSEGASLQLRCKYSYFGTPYRIEFSGREFALLFWYVQYPRQGLQLLLKYYPGDPVVQGVNGFEAEFSKSNSSFHLRKASVHWSDWAVYFCAVSRDTNTGKLTFGDGTVLTVKP Vbeta: EAAVTQSPRNKVAVTGGKVTLSCNQTNNHNNMGELNLAAANSPLYWYRQDTGHGLRLIHYSYVADSTEKGDIPDGYKASRPSQENFSLILELASLSQTAVYFCASSGGLGGHTLYFGAGTRLSVL",
    "Measured value": "no recognition"
  }
]
